Assay: Approximate solubility of BPCs in organic solvent and mixed solvent
Format: physicochemical
Details: ethyl acetate, organic solvent or mixture, thermodynamic from solid
MEASURED PARAMETER: solubility

Recorded solubility (compound Nc1ncnc2c1ncn2CCNCCCCCO [NB001] ): < 2000 µg/mL

---

Experiment: Approximate solubility of BPCs in organic solvent and mixed solvent
Format: physicochemical
Conditions: ethanol/water (mass ratio 3:1), organic solvent or mixture, thermodynamic from solid
Experimental: Into 7 mL vials were weighed 2.0 mg of the raw material respectively. […]
MEASURED PARAMETER: solubility

Reported solubility for Nc1ncnc2c1ncn2CCNCCCCCO [NB001] was 100 to 200 mg/mL

---

Experiment: Approximate solubility of BPCs in organic solvent and mixed solvent
Type: physicochemical
Conditions: acetonitrile/water (mass ratio 3:1), organic solvent or mixture, thermodynamic from solid
MEASURED PARAMETER: solubility

Nc1ncnc2c1ncn2CCNCCCCCO yielded solubility of 100 to 200 mg/mL

---

Assay: Approximate solubility of BPCs in organic solvent and mixed solvent
Type: physicochemical
Conditions: acetone/water (mass ratio 3:1), organic solvent or mixture, thermodynamic from solid
MEASURED PARAMETER: solubility

// Nc1ncnc2c1ncn2CCNCCCCCO [NB001] : solubility value = 100 to 200 mg/mL

---

Assay: Approximate solubility of BPCs in organic solvent and mixed solvent
Format: physicochemical
Conditions: ethanol, organic solvent or mixture, thermodynamic from solid
Description: Into 7 mL vials were weighed 2.0 mg of the raw material respectively. […]
MEASURED PARAMETER: solubility

For Nc1ncnc2c1ncn2CCNCCCCCO [NB001] the compound record lists solubility as 7 to 10 mg/mL

Where these numbers come from: patent US9963457B2
